Data origin, for the record: ChEMBL document CHEMBL2396592

- assay name: Cytotoxicity against human RPTEC after 24 hrs by LDH assay
- Assay type: cell-based
- conditions: RPTEC cells, read-out: TC50
Where a SMILES comes first, the peptide text is derived from it. Bridges are numbered along the chain shown (N, C = ends). [ ]: non-standard residue; d: D form. The star is where a group is joined. X11 = COc1cc(C(=O)*)cc(-c2ccccc2)c1; X17 = O=S(=O)(c1cccc(-c2ccccc2)c1)*; X5 = O=C(c1ccc(Cl)c(-c2ccccn2)c1)*; X13 = COc1ccc(-c2ccccc2)cc1C(=O)*; X6 = CC[C@H](C)CCCCC(=O)*; Dab = NCC[C@H](N)C(=O)O; Dap = NC[C@H](N)C(=O)O
measured endpoint: CC50 at 24 h (µM)
Enter your answer as a number in µM; do not include the unit.

Quote CC50 at 24 h reported for CC[C@H](C)CCCCC(=O)N[C@@H](CCN)C(=O)N[C@H](C(=O)N[C@@H](CCN)C(=O)N[C@H]1CCNC(=O)[C@H]([C@@H](C)O)NC(=O)[C@H](CCN)NC(=O)[C@H](CCN)NC(=O)[C@H](CC(C)C)NC(=O)[C@@H](Cc2ccccc2)NC(=O)[C@H](CCN)NC1=O)[C@@H](C)O (X6-[Dab]T[Dab][Dab][Dab][dF]L[Dab][Dab]T; lactam 4-C) please.
27

Quote CC50 at 24 h reported for CC(C)C[C@@H]1NC(=O)[C@@H](Cc2ccccc2)NC(=O)[C@H](CCN)NC(=O)[C@@H](NC(=O)[C@H](CN)NC(=O)[C@@H](NC(=O)[C@H](CCN)NS(=O)(=O)c2cccc(-c3ccccc3)c2)[C@@H](C)O)CCNC(=O)[C@H]([C@@H](C)O)NC(=O)[C@H](CCN)NC(=O)[C@H](CCN)NC1=O (X17-[Dab]T[Dap][Dab][Dab][dF]L[Dab][Dab]T; lactam 4-C) please.
42

Quote CC50 at 24 h reported for COc1cc(C(=O)N[C@@H](CCN)C(=O)N[C@H](C(=O)N[C@@H](CN)C(=O)N[C@H]2CCNC(=O)[C@H]([C@@H](C)O)NC(=O)[C@H](CCN)NC(=O)[C@H](CCN)NC(=O)[C@H](CC(C)C)NC(=O)[C@@H](Cc3ccccc3)NC(=O)[C@H](CCN)NC2=O)[C@@H](C)O)cc(-c2ccccc2)c1 (X11-[Dab]T[Dap][Dab][Dab][dF]L[Dab][Dab]T; lactam 4-C) please.
26

Quote CC50 at 24 h reported for COc1ccc(-c2ccccc2)cc1C(=O)N[C@@H](CCN)C(=O)N[C@H](C(=O)N[C@@H](CN)C(=O)N[C@H]1CCNC(=O)[C@H]([C@@H](C)O)NC(=O)[C@H](CCN)NC(=O)[C@H](CCN)NC(=O)[C@H](CC(C)C)NC(=O)[C@@H](Cc2ccccc2)NC(=O)[C@H](CCN)NC1=O)[C@@H](C)O (X13-[Dab]T[Dap][Dab][Dab][dF]L[Dab][Dab]T; lactam 4-C) please.
19

Quote CC50 at 24 h reported for CC(C)C[C@@H]1NC(=O)[C@@H](Cc2ccccc2)NC(=O)[C@H](CCN)NC(=O)[C@@H](NC(=O)[C@H](CN)NC(=O)[C@@H](NC(=O)[C@H](CCN)NC(=O)c2ccc(Cl)c(-c3ccccn3)c2)[C@@H](C)O)CCNC(=O)[C@H]([C@@H](C)O)NC(=O)[C@H](CCN)NC(=O)[C@H](CCN)NC1=O (X5-[Dab]T[Dap][Dab][Dab][dF]L[Dab][Dab]T; lactam 4-C) please.
72
